Attribute: IC50
biological target: canine TRPM8 (Canis lupus familiaris); construct: expressed in transfected cells; assay: In Vitro Canine TRPM8 Functional Assay (icilin-induced intracellular Ca2+ fluorescence, FLIPR/FDSS); type: cell-based; details: icilin challenge (~80% maximal response); HEK293 cells stably expressing canine TRPM8; eight-point dose-response
Counter-ions that a name gives are not always drawn.
QUANTITY_KIND: IC50 (nM)

COMPOUND	QUANTITY_KIND	UNIT_SPEC	TEST_VALUE
FC1=CCC(C=Cc2nc3cc(-c4ccccc4C(F)(F)F)ccc3[nH]2)CC1 (stereo not drawn)	IC50	nM	6
Cl.FC(F)(F)c1ccccc1-c1ccc2[nH]c(/C=C/C3CCCCC3)nc2c1 [Compound 71, hydrochloride]	IC50	nM	9
Fc1ccccc1-c1ccc2[nH]c(C=CC3CCC(F)(F)CC3)nc2c1 [Compound 39, hydrochloride salt]	IC50	nM	9
FC1=CCC(C=Cc2nc3cc(-c4ccccc4Cl)ccc3[nH]2)CC1 (stereo not drawn) [Compound 34, hydrochloride salt]	IC50	nM	5
Fc1ccccc1-c1ccc2[nH]c(/C=C/C3CCOCC3)nc2c1 [Compound 52, trifluoroacetic acid salt]	IC50	nM	70
Fc1cccc(C(F)(F)F)c1-c1ccc2[nH]c(/C=C/C3CCCCC3)nc2c1	IC50	nM	8
COc1cccc(OC)c1-c1ccc2[nH]c(C=CC3CCC(F)(F)CC3)nc2c1 [Compound 43, hydrochloride salt]	IC50	nM	2
CC(=O)c1ccccc1-c1ccc2[nH]c(C=CC3CCCC3)nc2c1	IC50	nM	170
COc1ccc(F)cc1-c1ccc2[nH]c(C=CC3CCC(F)(F)CC3)nc2c1 [Compound 45, hydrochloride salt]	IC50	nM	7
CC1(/C=C/c2nc3cc(-c4ccccc4C(F)(F)F)ccc3[nH]2)CCOCC1	IC50	nM	31
OCc1ccccc1-c1ccc2[nH]c(/C=C/C3CCCCC3)nc2c1	IC50	nM	12
FC1=CCC(C=Cc2nc3cc(-c4ccccc4C(F)(F)F)cc(C(F)(F)F)c3[nH]2)CC1 (stereo not drawn) [Compound 46, hydrochloride salt]	IC50	nM	4
Fc1cccc(C(F)(F)F)c1-c1ccc2[nH]c(C=CC3CCC(F)(F)CC3)nc2c1 [Compound 42, hydrochloride salt]	IC50	nM	3
Fc1cccc(F)c1-c1ccc2[nH]c(/C=C/C3CCOCC3)nc2c1 [Compound 61, hydrochloride]	IC50	nM	32
FC1(F)CCC(C=Cc2nc3cc(-c4ccccc4Cl)ccc3[nH]2)CC1 [Compound 38, hydrochloride salt]	IC50	nM	3.5

----------
biological target: canine TRPM8 (Canis lupus familiaris, UniProt Q1A7N1); construct: expressed in transfected cells; assay: In Vitro Canine TRPM8 Functional Assay (icilin-induced intracellular Ca2+ fluorescence, FLIPR/FDSS); format: cell-based; conditions: 0.2 μM test compound; icilin challenge; HEK293 cells stably expressing canine TRPM8
Sequence (Q1A7N1 1-1104): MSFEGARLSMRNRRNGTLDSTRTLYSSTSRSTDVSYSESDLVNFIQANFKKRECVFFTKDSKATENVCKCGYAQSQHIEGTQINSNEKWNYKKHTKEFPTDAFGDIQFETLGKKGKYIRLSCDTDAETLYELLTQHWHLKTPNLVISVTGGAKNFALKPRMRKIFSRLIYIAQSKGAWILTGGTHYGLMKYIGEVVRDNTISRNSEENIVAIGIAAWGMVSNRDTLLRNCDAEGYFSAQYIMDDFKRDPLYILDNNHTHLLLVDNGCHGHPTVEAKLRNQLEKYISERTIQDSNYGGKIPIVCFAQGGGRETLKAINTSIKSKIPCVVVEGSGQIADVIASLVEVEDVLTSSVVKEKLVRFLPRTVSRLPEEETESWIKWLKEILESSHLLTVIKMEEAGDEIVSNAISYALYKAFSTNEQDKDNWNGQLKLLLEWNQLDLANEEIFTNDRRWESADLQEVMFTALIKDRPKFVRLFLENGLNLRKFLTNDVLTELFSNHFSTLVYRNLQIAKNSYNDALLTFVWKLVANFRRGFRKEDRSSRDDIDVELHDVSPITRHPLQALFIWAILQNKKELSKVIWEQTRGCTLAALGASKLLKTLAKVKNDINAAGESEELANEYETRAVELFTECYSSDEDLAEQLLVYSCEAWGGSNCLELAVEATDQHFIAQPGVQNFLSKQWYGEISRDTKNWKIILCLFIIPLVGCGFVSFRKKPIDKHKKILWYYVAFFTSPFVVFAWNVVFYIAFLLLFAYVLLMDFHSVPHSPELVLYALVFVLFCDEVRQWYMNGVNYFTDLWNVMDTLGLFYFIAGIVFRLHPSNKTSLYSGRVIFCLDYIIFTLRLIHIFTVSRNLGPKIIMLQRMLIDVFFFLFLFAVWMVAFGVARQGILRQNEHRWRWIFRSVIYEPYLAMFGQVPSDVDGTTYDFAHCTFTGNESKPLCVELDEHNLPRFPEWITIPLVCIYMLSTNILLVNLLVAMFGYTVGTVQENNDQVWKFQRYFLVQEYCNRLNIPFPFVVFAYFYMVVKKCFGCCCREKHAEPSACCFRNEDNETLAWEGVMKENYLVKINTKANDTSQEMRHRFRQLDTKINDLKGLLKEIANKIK
Structures can show the parent of a compound that is named as a salt.
Attribute: inhibition at 0.2 µM

COMPOUND	inhibition at 0.2 µM / %
CC(=O)c1ccccc1-c1ccc2[nH]c(C=CC3CCCC3)nc2c1	77
Fc1ccc(F)c(-c2ccc3[nH]c(C=CC4CCCCC4)nc3c2)c1	101
FC(F)(F)c1ccccc1-c1ccc2[nH]c(/C=C/C3CCOCC3)nc2c1 [Compound 50, hydrochloride]	101
CC1(C)CCC(/C=C/c2nc3cc(-c4ccccc4C(F)(F)F)ccc3[nH]2)CC1 [Compound 64, hydrochloride]	98
FC1=CCC(C=Cc2nc3cc(-c4ccccc4F)ccc3[nH]2)CC1 (centres unmarked) [Compound 36, hydrochloride salt]	100
Cc1cc(-c2ccccc2C(F)(F)F)cc2nc(/C=C/C3CCC(C)(C)CC3)[nH]c12 [Compound 63, hydrochloride]	97
FC(F)(F)c1cccnc1-c1ccc2[nH]c(/C=C/C3CCCCC3)nc2c1	92
CC(=O)c1ccccc1-c1ccc2[nH]c(C=CC3CCCCC3)nc2c1	97
COc1ccc(Cl)c(-c2ccc3[nH]c(C=CC4CCCCC4)nc3c2)c1	101
COc1cccc(F)c1-c1ccc2[nH]c(C=CC3CC=C(F)CC3)nc2c1 (centres unmarked) [Compound 41, hydrochloride salt]	100
CC1(C)CCC(/C=C/c2nc3cc(-c4c(F)cccc4F)ccc3[nH]2)CC1 [Compound 65, trifluoroacetic acid salt]	96
Fc1cccc(C(F)(F)F)c1-c1ccc2[nH]c(C=CC3CCC(F)(F)CC3)nc2c1 [Compound 42, hydrochloride salt]	101
Cc1cc(-c2ccccc2C(F)(F)F)cc2nc(C=CC3CCCCC3)[nH]c12 [Compound 49, hydrochloride salt]	99
COc1cc(F)ccc1-c1ccc2[nH]c(C=CC3CCCCC3)nc2c1	92
C/C(=C\c1nc2cc(-c3ccccc3C(F)(F)F)ccc2[nH]1)C1CCCCC1	102
COc1cccc(OC)c1-c1ccc2[nH]c(C=CC3CCC(F)(F)CC3)nc2c1 [Compound 43, hydrochloride salt]	100
FC(F)(F)c1cc(-c2ccc3[nH]c(/C=C/C4CCOCC4)nc3c2)ccn1 [Compound 54, hydrochloride]	1
Cc1ccsc1-c1ccc2[nH]c(C=CC3CCCC3)nc2c1	102
Cc1cc(-c2ccccc2C(F)(F)F)cc2nc(/C=C/C3CCOCC3)[nH]c12 [Compound 53, hydrochloride]	102
FC1=CCC(C=Cc2nc3cc(-c4ccccc4C(F)(F)F)cc(C(F)(F)F)c3[nH]2)CC1 (centres unmarked) [Compound 46, hydrochloride salt]	99
Fc1cccc(Cl)c1-c1ccc2[nH]c(C=CC3CCCCC3)nc2c1	101
CC1(/C=C/c2nc3cc(-c4c(C(F)(F)F)cccc4C(F)(F)F)ccc3[nH]2)CCOCC1	100
FC(F)(F)c1ccccc1-c1ccc2[nH]c(/C=C/C34CCC(Br)(CC3)CC4)nc2c1	97
FC(F)(F)COc1ccccc1-c1ccc2[nH]c(C=CC3CCCCC3)nc2c1	103
Fc1cccc(OC(F)(F)F)c1-c1ccc2[nH]c(/C=C/C3CCCCC3)nc2c1	96
Cc1ccccc1-c1ccc2[nH]c(C=CC3CCCCC3)nc2c1	103
Fc1cccc(F)c1-c1ccc2[nH]c(C=CC3CCCCC3)nc2c1	102
OCc1ccccc1-c1ccc2[nH]c(C=CC3CCCC3)nc2c1	95
Cl.FC(F)(F)c1ccccc1-c1ccc2[nH]c(/C=C/C3CCCCC3)nc2c1 [Compound 71, hydrochloride]	94
Fc1ccccc1-c1ccc2[nH]c(C=CC3CCCCC3)nc2c1	102
FC(F)(F)Oc1ccccc1-c1ccc2nc(C=CC3CCCC3)[nH]c2c1	100
Fc1cccc(F)c1-c1ccc2[nH]c(/C=C/C3CCOCC3)nc2c1 [Compound 61, hydrochloride]	97

Where do the numbers come from? From patent US8217060B2.
